Examples of compounds with documented Ki follow.
Target: hCRTH2 (Homo sapiens)
Construct: expressed in transfected cells; host or cells: HEK (human embryonic kidney) cells expressing hCRTH2; membrane preparation
Experiment: Radioligand binding assay ([3H]PGD2 competition, HEK-hCRTH2 membranes)
Settings: [3H]PGD2 binding, rated A-E (Table A)

Compound: O=C(O)CCCCc1nc2cc(C(=O)N3CCC(c4ccccc4)CC3)ccc2nc1-c1ccccc1 [15Ai]
Ki: 0.1 to 2 nM
--
Compound: O=C(O)CCCCc1nc2cc(C(=O)N[C@@H]3CCCc4cc(Cl)ccc43)ccc2nc1-c1ccc(F)cc1
Ki: 0.1 to 2 nM
--
Compound: O=C(O)CCCCc1nc2cc(C(=O)N3CCC[C@@H](c4ccccc4)C3)ccc2nc1-c1ccc(Cl)cc1 [16o]
Ki: 0.1 to 2 nM

What reported Ki corresponds to O=C(O)CCCCc1nc2cc(C(=O)NCc3cc(Cl)ccn3)ccc2nc1-c1ccccc1 [15BT] on hCRTH2 (Homo sapiens)? 0.1 to 2 nM

For `O=C(O)CCCC(=O)c1nc2cc(C(=O)N[C@@H]3CCCc4ccccc43)ccc2nc1-c1ccc(Cl)cc1` then? 201 to 700 nM

Similarly, O=C(O)CCCCc1nc2cc(C(=O)NCc3ccccc3)ccc2nc1-c1ccc(Cl)cc1 [16G] ? 0.1 to 2 nM

Can you check O=C(O)CCCCc1nc2cc(C(=O)N3CCCC3c3ccccc3)ccc2nc1-c1ccccc1 (stereo not shown) [15AL] next? 0.1 to 2 nM

Same lookup for O=C(O)CCCCc1nc2cc(C(=O)NCc3cc(Cl)cc(Cl)c3)ccc2nc1-c1ccc(Cl)cc1 [16Q] , please. 0.1 to 2 nM

----------
Target: hCRTH2 (Homo sapiens)
Construct: expressed in transfected cells; host or cells: HEK (human embryonic kidney) cells expressing hCRTH2; membrane preparation
Assay: Radioligand binding assay ([3H]PGD2 competition, HEK-hCRTH2 membranes)
Conditions: [3H]PGD2 competition, Table B
In this section we review reported Ki values for a set of compounds.

Some solved cases for reference:
Compound: O=C(O)CCCCc1nc2cc(C(=O)N3C[C@@H]4C[C@H]3CN4c3ccc(F)cc3)ccc2nc1-c1ccc(Cl)cc1
Assay result: 2.1 to 20 nM
--
Compound: CC(CCCc1nc2cc(C(=O)N[C@@H]3CCCc4ccccc43)ccc2nc1-c1ccccc1)C(=O)O (stereo partly shown)
Assay result: 2.1 to 20 nM
--
Compound: C[C@@H](CCCc1nc2cc(C(=O)N[C@@H]3CCc4cc(Cl)ccc43)ccc2nc1-c1ccc(F)cc1)C(=O)O
Assay result: 2.1 to 20 nM

Now look at this one.
What Ki value was documented for this compound, `O=C(O)CCCCc1nc2cc(C(=O)N3CC(n4cnnc4)C3)ccc2nc1-c1ccc(Cl)cc1` ? 20.1 to 200 nM

----------
Molecular target: hCRTH2 (Homo sapiens, UniProt Q9Y5Y4)
Construct: expressed in transfected cells; host or cells: HEK (human embryonic kidney) cells expressing hCRTH2; membrane preparation
Sequence (Q9Y5Y4 whole entry): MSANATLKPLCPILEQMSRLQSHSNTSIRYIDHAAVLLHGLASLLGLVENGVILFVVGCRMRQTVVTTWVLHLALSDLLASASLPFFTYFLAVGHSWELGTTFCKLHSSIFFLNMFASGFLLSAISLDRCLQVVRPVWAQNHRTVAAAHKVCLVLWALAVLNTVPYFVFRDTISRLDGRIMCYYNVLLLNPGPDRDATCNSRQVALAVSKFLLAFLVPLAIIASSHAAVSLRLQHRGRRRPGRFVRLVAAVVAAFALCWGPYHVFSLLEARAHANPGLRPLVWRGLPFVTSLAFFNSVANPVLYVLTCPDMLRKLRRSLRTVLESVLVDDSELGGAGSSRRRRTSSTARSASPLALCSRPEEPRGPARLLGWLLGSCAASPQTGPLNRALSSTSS
Test: Radioligand binding assay ([3H]PGD2 competition, HEK-hCRTH2 membranes)
Conditions: [3H]PGD2 competition, Table B
Experimental: Biological Assays Radioligand Binding Assay. Radioligand binding assays were performed at room temperature in 50 mM Tris-HCl pH 7.4, 1 mM EDTA containing 2 mM MnCl2 and 3.0 nM [^3H]PGD2 (New England Nuclear, Boston, Mass.) (171 Ci mmol^−1), in a final volume of 0.2 mL. […] Total and non-specific binding were determined in the absence and the presence of 10 μM PGD2, respectively. […] The radioactivity was measured with Betaplate model 1205 (Wallac).
pKi: −log10 of the molar value.
Reported metric: pKi

Molecule: Cc1ccc(N2CCN(C(=O)c3ccc4nc(-c5ccc(Cl)cc5)c(CCCCC(=O)O)nc4c3)CC2)cc1
Reported metric: pKi
Assay result: 7.70 to 8.68

Molecule: Cc1cnccc1N1CCN(C(=O)c2ccc3nc(-c4ccc(F)cc4)c(CCCCC(=O)O)nc3c2)CC1
Reported metric: pKi
Assay result: 6.70 to 7.70

Molecule: C[C@H](NC(=O)c1ccc2nc(-c3ccc(F)cc3)c(CCCCC(=O)O)nc2c1)c1ccc2ccccc2c1
Reported metric: pKi
Assay result: 7.70 to 8.68

Molecule: O=C(N[C@@H]1CCCc2cc(F)ccc21)c1ccc2nc(-c3ccc(F)cc3)c(CCC3CC3C(=O)O)nc2c1 (some centres unmarked)
Reported metric: pKi
Assay result: 7.70 to 8.68

Molecule: O=C(O)CCCCc1nc2cc(C(=O)N3CCC4(CC3)CNC(=O)c3ccccc34)ccc2nc1-c1ccc(Cl)cc1
Reported metric: pKi
Assay result: 7.70 to 8.68

Molecule: O=C(O)CCCCc1nc2cc(C(=O)N[C@@H]3CCS(=O)(=O)c4ccccc43)ccc2nc1-c1ccccc1
Reported metric: pKi
Assay result: 7.70 to 8.68

Molecule: CN(C(=O)c1ccc2nc(-c3ccccc3)c(CCCCC(=O)O)nc2c1)[C@@H]1CCCc2cc(Cl)ccc21
Reported metric: pKi
Assay result: 7.70 to 8.68

Molecule: O=C(O)CCCCc1nc2cc(C(=O)N[C@@H]3CCCc4ncccc43)ccc2nc1-c1ccccc1
Reported metric: pKi
Assay result: 6.70 to 7.70

Molecule: CN(Cc1ccccc1)C(=O)c1ccc2nc(-c3ccc(Cl)cc3)c(CCCCC(=O)O)nc2c1
Reported metric: pKi
Assay result: 8.70 to 10.00

Molecule: O=C(O)CCCCc1nc2cc(C(=O)N[C@H]3CCCc4cccnc43)ccc2nc1-c1ccccc1
Reported metric: pKi
Assay result: 7.70 to 8.68

Suppose we examine the molecule `O=C(O)CCCCc1nc2cc(C(=O)N3CCN(c4ccccc4Cl)CC3)ccc2nc1-c1ccc(Cl)cc1` ; what pKi value has been reported? 8.70 to 10.00

Note, next up: `O=C(O)CCCc1nc2cc(C(=O)N[C@@H]3CCCc4ccccc43)ccc2nc1-c1ccccc1` 6.15 to 6.70

What do you have for `C[C@@H](NC(=O)c1ccc2nc(-c3ccc(Cl)cc3)c(CCCCC(=O)O)nc2c1)c1ccc2ccccc2c1` ? 7.70 to 8.68

Also need `CC(C)(NC(=O)c1ccc2nc(-c3ccc(Cl)cc3)c(CCCCC(=O)O)nc2c1)c1ccc(F)cc1` , thanks. 7.70 to 8.68

And `O=C(O)CCCCc1nc2cc(C(=O)N3C[C@H]4C[C@@H]3CN4C(=O)OCc3ccccc3)ccc2nc1-c1ccc(Cl)cc1` ? 7.70 to 8.68

----------
Target: hCRTH2 (Homo sapiens)
Construct: expressed in transfected cells; host or cells: HEK (human embryonic kidney) cells expressing hCRTH2; membrane preparation
Test: Radioligand binding assay ([3H]PGD2 competition, HEK-hCRTH2 membranes)
Settings: [3H]PGD2 competition, Table B
pKi: −log10 of the molar value.
Reported metric: pKi

Compound: O=C(O)CCCc1nc2cc(C(=O)N[C@@H]3CCOc4cc(F)ccc43)ccc2nc1-c1ccccc1 [compound 725]
pKi: 6.15 to 6.70

Compound: Cc1ccc(N2CCN(C(=O)c3ccc4nc(-c5ccc(Cl)cc5)c(CCCCC(=O)O)nc4c3)CC2)c(C)c1 [compound 636]
pKi: 8.70 to 10.00

Given the compound O=C(O)CCCCc1nc2cc(C(=O)N3CCC(O)(c4ccccc4)C3)ccc2nc1-c1ccc(Cl)cc1 (stereo not drawn) [compound 689] , what is its reported pKi? 7.70 to 8.68

Field entry: CC(C)[C@@H](NC(=O)c1ccc2nc(-c3ccc(Cl)cc3)c(CCCCC(=O)O)nc2c1)c1ccc(F)cc1 [compound 399] 7.70 to 8.68

Input C[C@@H](c1ccccc1)N(C)C(=O)c1ccc2nc(-c3ccc(Cl)cc3)c(CCCCC(=O)O)nc2c1 [compound 644] 7.70 to 8.68

Same question, O=C(O)CCCCc1nc2cc(C(=O)N3CCN(c4cnccn4)CC3)ccc2nc1-c1ccc(Cl)cc1 [compound 597] this time 7.70 to 8.68

Same again, this time with O=C(O)CCCCc1nc2cc(C(=O)N3CCC4(CC3)OCc3ccccc34)ccc2nc1-c1ccc(F)cc1 [compound 362] 7.70 to 8.68

Also O=C(O)CCCCc1nc2cc(C(=O)N3Cc4ccccc4C3)ccc2nc1-c1ccccc1 [compound 307] ? 6.70 to 7.70

// repeat for O=C(O)CCCCc1nc2cc(C(=O)N[C@@H]3CCCc4cc(Cl)ccc43)ccc2nc1-c1ccccc1 [compound 386] and report 8.70 to 10.00

Now try Cc1cccc(N2CCN(C(=O)c3ccc4nc(-c5ccc(Cl)cc5)c(CCCCC(=O)O)nc4c3)CC2)c1C [compound 627] . 8.70 to 10.00

Query O=C(O)CCCCc1nc2cc(C(=O)N3CCc4c([nH]c5ccccc45)C3)ccc2nc1-c1ccc(Cl)cc1 [compound 608] next 7.70 to 8.68

Moving on to Cc1ccc(CNC(=O)c2ccc3nc(-c4ccc(Cl)cc4)c(CC4CCC(C(=O)O)C4)nc3c2)cc1 (stereo not drawn) [compound 393] 7.70 to 8.68

Similarly, N#Cc1cccnc1N1CCN(C(=O)c2ccc3nc(-c4ccc(F)cc4)c(CCCCC(=O)O)nc3c2)CC1 [compound 358] ? 7.70 to 8.68

Let us now turn to O=C(O)Cc1cc(F)cc(CCc2nc3cc(C(=O)N4CCN(c5ccccc5)CC4)ccc3nc2-c2ccc(Cl)cc2)c1 [compound 445] 7.70 to 8.68

Also need C[C@H](NC(=O)c1ccc2nc(-c3ccc(Cl)cc3)c(CCCCC(=O)O)nc2c1)c1ccc2ccccc2c1 [compound 496] , thanks. 7.70 to 8.68
